Origin of measurements: ChEMBL document CHEMBL5338804

method_summary: Metabolic stability in mouse liver microsomes assessed as parent compound remaining at 0.5 uM measured after 10 mins in presence of NADPH by LC-MS/MS analysis
Format: ADME, Microsome
condition_label: read-out: Stability
metric_name: remaining at 10 min, 0.5 µM (%)
Value expressed in %; do not type the unit.

Solved cases (5 shown):
- input_smiles: "O=C(Nc1cnccc1N1CCC(F)(F)CC1)c1ccnc(Nc2ccccc2)n1"
  recorded_number: 3
- input_smiles: "O=C(Nc1cnccc1-c1ccccc1)c1ccnc(Nc2ccc(C(F)(F)F)cc2)n1"
  recorded_number: 77
- input_smiles: "O=C(Nc1cnccc1-c1ccccc1)c1ccnc(Nc2cccnc2)n1"
  recorded_number: 12
- input_smiles: "COc1ccc(Nc2nccc(C(=O)Nc3cnccc3-c3ccccc3)n2)cc1F"
  recorded_number: 32
- input_smiles: "O=C(Nc1cnccc1OCC(F)(F)F)c1ccnc(Nc2ccc(C(F)(F)F)cc2)n1"
  recorded_number: 87

Measured remaining at 10 min, 0.5 µM, O=C(Nc1cnccc1-c1ccccc1)c1ccnc(Nc2ccc(Cl)cc2)n1 : 86

Measured remaining at 10 min, 0.5 µM, N#Cc1ccc(Nc2nccc(C(=O)Nc3cnccc3-c3ccccc3)n2)c(Cl)c1 : 68

Measured remaining at 10 min, 0.5 µM, O=C(Nc1cnccc1-c1ccccc1)c1ccnc(Nc2ccc(OC(F)F)cc2)n1 : 65
